# PROCEDURE_DETAILS: protease stability score; higher = more stable; yeast display proteolysis, trypsin and chymotrypsin;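 also: relative to predicted unfolded state with 0 unfolded-like and 1 meaning tenfold more protease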
MEASURED_QUANTITY: protease stability score
Respond using a number only.

Please look up its protease stability score: DELEDDSRRAMETLIEIEKTGDWDLMYQLADPHVKLDINGRIIHGRDEFERRIHEHLTELGIKHHHVKHFQIRIVDGRMEVRLDGILRFNGKDLDVEIVLIVLKVNGRWLLEHSSVKYK
1.38

Please look up its protease stability score: DEEHKLAEHYLRIWIHALITGDFHKILHLMDPNVRNEVGDKEVHGREEWEKFLKRVKNVVIEHVELDHLLVVDGRVHIRVTLHMSYGDKTEDHDIHVLMHKVDGRWYIKSIHVK
2.43

Please look up its protease stability score: DEEKRFHHKLLRLFLESFLTGDWRLWYKLADPNARFHAPNHESHGREEVVEMIFKWLKQYDHVEIRIHDVRYYNGQIRMDVELHFRQGDKETSTKLDLILIVVDGRITEVHFDVR
0.916

====

# PROCEDURE_DETAILS: protease stability score; higher = more stable; yeast display proteolysis, trypsin and chymotrypsin;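 also: relative to predicted unfolded state with 0 unfolded-like and 1 meaning tenfold more protease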
Please go through the items and note down their protease stability score.
Respond using a number only.

Please look up its protease stability score: DELTHAVTRFHKETMDAVRTGNEEWHSRLLDPNTRIHIGEFNNVGMEQVIEILRRVKNLRIHHVHLDHIDFYDGRADIHGTVHGIWNGRHRKVKHEHFLLKIDGVWYLEEIRVE
0.371

Please look up its protease stability score: SEDEELMKKVFEIFLNHLETGDWRELEKLLDPHAQLNIDGRDYHGWDKITEEMRKLGMTMHSELEHVRFQGDKIDLKGYVKVRIGDKEIRRSTRYVALKVDGRWEERSIILL
1.41

Please look up its protease stability score: RKEEEDLHKLLEHLSENYWTGNEEMFNHLADPHTRFEIRIGEFTIEDHGRERIKELVEWLLRFLGANHSHLTSIRVVGDKFHVNSLIHVDGREHTLHIIFVFINGRLTHYSMEVR
1.35

Please look up its protease stability score: DEHHEVAHRISTMLTHILMTGNEEWLSHLADPRVRSEIGDFEIHGREHMEELLHRILNKLGADHLRIHHIEIRIQGDFLIVKVHGRTHIGDKTVTHEIIFIIIKINGRWHLHSIWFDFE
1

Please look up its protease stability score: SEEEQEAIENLHQYIEAIKTGDEDKLRDLFDPNAIIHFDGREIHGRHVFLKKLRHLWLDLKHFHIQHVEPYNGRVEIHGFQHTSVDIDGVRSRRDEHVLIEIIKINGKWKIKRIEWI
1.68

Please look up its protease stability score: SEDEEYVKELADLFKELWETGDEETFMKLVDPNVRSDVNGKRVHGREEIRRVWHEVIRTLGIKYSHLRDMRIIGNKVVLDIELRVGDKRIELKVILIIVNGRMHYVELRLNEI
1.89

Please look up its protease stability score: SEDEEDAERLIRELEHAWHTGDEKYLWEMIDPHARFIIGDKEFHGRDLQLRILHRLIKELGVSRFELHIEHFEVIDGRLHTEGRLNVNGRILKTHLILRKIDGRWLIKSDELR
1.49

Please look up its protease stability score: DDEDKRLETRARLWFEHFFTGDFEAMLWYLDPDTRLHINGREFHGMEHIVHHLEREILHLRVRIHLRRIKIFDGRLIIDIELEVHYGDKTHRTRAEIILIVVNGRIREIEVRES
1.5

Please look up its protease stability score: DEEDEITHKMLRRWFEILATGNEHLFQHYADPNVLVRYEVGDKEWRLHGREEALRYWSELRIHELKVEHFTEVGDKVHMDTRRKGEFDGRRDTKKTRVHIVIIDGRLHNVELRIV
1.14

Please look up its protease stability score: DEDKEILHKMVEILRHALQTGDEDRLSEMFDPNVRLEINGREEWGREIFRDKHRQLGVDHLHIIIRRVHIQGEYAHIDTEYRIHVNGKTLETRVEVIALKIDGKWLIRQVIFT
1.14

Please look up its protease stability score: DEKEEAARQIMTWLLEVLLTGDERLFEHNADPNVRIDVDGVDLVGMELFRHEVRRIDHMESRMRVRRVTVQGDKVRMEVEIEVTLFINGKEIRHRRESELIVLKIDGRWIIKSTHVK
1.56

Please look up its protease stability score: SEEEKIAEDLAREIEEDWLTGNEEYIMHLADPNVKSHINIDGKRIDTHGMEELTHWLSRYPNVRIEPKRMDVQGEKITLDFELNIGDKRVRVILYHIIINGRIKEIRIIIHHV
0.995

src = the NTF2 design screens of Basanta et al. (2020)
